# measurementTarget: CTX-M-96 β-lactamase (Escherichia coli, UniProt Q9EXV5, N92S)
# procedureText: IC50 after 5-min preincubation, nitrocefin reporter substrate
# assaySetup: 100 μM nitrocefin
pIC50: −log10 of the molar value.
pIC50 by entry:
measure: pIC50

{"molecule": "Nc1nnc(SCC(=O)N[C@@H](Cn2cc(C(=O)O)nn2)B(O)O)s1 [MB_076]", "measure": "pIC50", "quantitativeReadout": 8.40}
{"molecule": "O=C(Cc1cccs1)N[C@@H](Cn1cc(C(=O)O)nn1)B(O)O [S02030]", "measure": "pIC50", "quantitativeReadout": 8.70}
